Reference source for all entries: the NIST ThermoML archive (doi:10.1016/j.fluid.2016.07.022)

- CONDITION DETAILS: 293.15 K; 101.33 kPa; Liquid; Frequency=3 MHz; Single path-length method
ASSAY METRIC: speed of sound (m/s)

{"MOLECULE": "CC(=O)[O-].CCCC[NH2+]CCO [N-(2-hydroxyethyl)butan-1-aminium acetate]", "speed of sound [m/s]": 1566.5}
{"MOLECULE": "CCCC[NH2+]CCO.O=C[O-] [N-(2-hydroxyethyl)butan-1-aminium formate]", "speed of sound [m/s]": 1616.5}
{"MOLECULE": "CCCC(=O)[O-].CCCC[NH2+]CCO [N-(2-hydroxyethyl)butan-1-aminium butyrate]", "speed of sound [m/s]": 1484.6}
{"MOLECULE": "CCCCC(=O)[O-].CCCC[NH2+]CCO [N-(2-hydroxyethyl)butan-1-aminium pentanoate]", "speed of sound [m/s]": 1460}
{"MOLECULE": "CCC(=O)[O-].CCCC[NH2+]CCO [N-(2-hydroxyethyl)butan-1-aminium propionate]", "speed of sound [m/s]": 1513.8}
